- Tested system: PD-1/PD-L1 complex (Homo sapiens)
- Sequence (Q9NZQ7 19-238 limits assumed, one chain of several): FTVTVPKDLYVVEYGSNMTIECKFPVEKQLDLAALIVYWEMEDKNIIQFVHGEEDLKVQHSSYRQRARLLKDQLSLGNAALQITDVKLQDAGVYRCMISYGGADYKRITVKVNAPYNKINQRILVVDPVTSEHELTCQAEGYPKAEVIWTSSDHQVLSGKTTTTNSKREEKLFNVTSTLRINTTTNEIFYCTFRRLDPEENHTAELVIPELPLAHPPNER
- Protocol description: HTRF PD-1/PD-L1 assay (Cisbio Human PD1/PD-L1 biochemical binding assay)
- Particulars: disruption of the PD-1/PD-L1 complex; two independent dilution series
Recorded metric: pIC50
FYI, pIC50 means -log10 of a concentration in mol per litre.

sample_smiles=Cc1c(COc2cc(OCc3cccc(C#N)c3)c(CN3C[C@@H](F)C[C@@H]3C(=O)O)cc2Cl)cccc1-c1ccc2c(c1)OCCO2 measured_value=8.70

Turning now to a further molecule:
I am curious: what pIC50 value has been reported for N#Cc1c(-c2ccc(F)cc2)csc1OCc1ccc(CN)cc1 ? 8.30

----------
- Tested system: PD-L1 (Homo sapiens, UniProt Q9NZQ7)
- Construct: The PD-L1 protein (18–134) was expressed in the Escherichia coli BL21 (DE3); made in house; host or cells: Escherichia coli BL21 (DE3)
- Sequence (Q9NZQ7 18-134): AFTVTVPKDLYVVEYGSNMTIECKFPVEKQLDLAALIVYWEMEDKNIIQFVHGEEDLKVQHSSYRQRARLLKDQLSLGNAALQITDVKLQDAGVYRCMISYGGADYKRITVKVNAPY
- Protocol description: Microscale thermophoresis (MST) affinity assay
- Format: binding
- Particulars: supplementary csv, unit inferred; read-out: MST Kd
Recorded metric: Kd

sample_smiles=Cc1c(COc2cc(OCc3cccc(C#N)c3)c(CN3C[C@@H](F)C[C@@H]3C(=O)O)cc2Cl)cccc1-c1ccc2c(c1)OCCO2 tested_system="PD-L1 (Homo sapiens, UniProt Q9NZQ7)" recorded_metric=Kd measured_value="8.36 nM"

Turning now to a further molecule:
I am curious: what Kd value has been reported for N#Cc1c(-c2ccc(F)cc2)csc1OCc1ccc(CN)cc1 ? 26.9 nM

----------
- Protocol description: Experimental lipophilicity of 18F tracers
- Format: physicochemical
- Particulars: 18F tracer, triplicate; read-out: experimental log P
The entries below are paired with their reported logP.
Answer with a number only.

Use these answered entries as a reference point.
compound="N#Cc1c(-c2ccc([18F])cc2)csc1OCc1ccc(CN)cc1 [[^18F]4a]" recorded_metric=logP measured_value=3.6
compound="Cc1c(COc2cc(OCc3cccc(C#N)c3)c(CN3C[C@@H]([18F])C[C@@H]3C(=O)O)cc2Cl)cccc1-c1ccc2c(c1)OCCO2 [[^18F]9a]" recorded_metric=logP measured_value=5.2
compound=N#Cc1c(-c2ccc(F)cc2)csc1OCc1ccc(CN)cc1 recorded_metric=logP measured_value=3.6

Turning now to a further compound:
I am curious: what logP value has been reported for Cc1c(COc2cc(OCc3cccc(C#N)c3)c(CN3C[C@@H](F)C[C@@H]3C(=O)O)cc2Cl)cccc1-c1ccc2c(c1)OCCO2 ? 5.2

----------
- Protocol description: Experimental lipophilicity of 18F tracers
- Type: physicochemical
- Particulars: pH 7.4, 18F tracer, triplicate; read-out: experimental log D7.4
The entries below are paired with their reported logD.
Answer with a number only.

Use these answered entries as a reference point.
molecule="Cc1c(COc2cc(OCc3cccc(C#N)c3)c(CN3C[C@@H]([18F])C[C@@H]3C(=O)O)cc2Cl)cccc1-c1ccc2c(c1)OCCO2 [[^18F]9a]" recorded_metric=logD measured_value=6.5
molecule="N#Cc1c(-c2ccc([18F])cc2)csc1OCc1ccc(CN)cc1 [[^18F]4a]" recorded_metric=logD measured_value=3.9

I am curious: what logD value has been reported for Cc1c(COc2cc(OCc3cccc(C#N)c3)c(CN3C[C@@H](F)C[C@@H]3C(=O)O)cc2Cl)cccc1-c1ccc2c(c1)OCCO2 ? 6.5

I am curious: what logD value has been reported for N#Cc1c(-c2ccc(F)cc2)csc1OCc1ccc(CN)cc1 ? 3.9

Data provenance: paper PMC10388299
